Entries and their Fold Amiloride** (PSA 4022 = 100)
molecular target: airway epithelial sodium currents (epithelial Na+ channel, ENaC) (Canis lupus familiaris, UniProt A0A8I3MKE6+A0A8I3Q679+Q95165); assay: Sodium channel blocking activity: inhibition of short circuit current (ISC) in airway epithelial monolayers mounted in Ussing chambers; assay type: cell-based, canine; conditions: relative potency for PSA 4022 = 100 using EC50 from PSA 4022 in same run
Sequence (A0A8I3Q679 1-649): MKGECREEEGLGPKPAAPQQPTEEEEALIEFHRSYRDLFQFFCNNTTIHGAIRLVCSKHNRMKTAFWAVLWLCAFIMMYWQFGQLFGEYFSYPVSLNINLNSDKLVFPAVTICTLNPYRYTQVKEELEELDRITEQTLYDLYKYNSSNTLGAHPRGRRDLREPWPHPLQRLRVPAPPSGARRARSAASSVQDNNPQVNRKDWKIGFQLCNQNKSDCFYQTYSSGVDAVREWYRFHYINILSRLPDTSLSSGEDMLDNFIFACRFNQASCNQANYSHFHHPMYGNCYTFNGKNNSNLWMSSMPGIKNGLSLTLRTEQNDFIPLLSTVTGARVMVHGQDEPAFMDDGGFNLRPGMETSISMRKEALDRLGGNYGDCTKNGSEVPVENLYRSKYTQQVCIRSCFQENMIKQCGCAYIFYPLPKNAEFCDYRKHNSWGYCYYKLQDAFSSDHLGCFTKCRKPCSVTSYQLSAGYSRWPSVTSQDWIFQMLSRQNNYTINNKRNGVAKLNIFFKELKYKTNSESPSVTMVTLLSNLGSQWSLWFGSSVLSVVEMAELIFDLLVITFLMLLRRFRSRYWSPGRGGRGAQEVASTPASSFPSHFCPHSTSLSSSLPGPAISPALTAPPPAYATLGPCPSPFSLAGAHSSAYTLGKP
Sequence (Q95165 whole entry): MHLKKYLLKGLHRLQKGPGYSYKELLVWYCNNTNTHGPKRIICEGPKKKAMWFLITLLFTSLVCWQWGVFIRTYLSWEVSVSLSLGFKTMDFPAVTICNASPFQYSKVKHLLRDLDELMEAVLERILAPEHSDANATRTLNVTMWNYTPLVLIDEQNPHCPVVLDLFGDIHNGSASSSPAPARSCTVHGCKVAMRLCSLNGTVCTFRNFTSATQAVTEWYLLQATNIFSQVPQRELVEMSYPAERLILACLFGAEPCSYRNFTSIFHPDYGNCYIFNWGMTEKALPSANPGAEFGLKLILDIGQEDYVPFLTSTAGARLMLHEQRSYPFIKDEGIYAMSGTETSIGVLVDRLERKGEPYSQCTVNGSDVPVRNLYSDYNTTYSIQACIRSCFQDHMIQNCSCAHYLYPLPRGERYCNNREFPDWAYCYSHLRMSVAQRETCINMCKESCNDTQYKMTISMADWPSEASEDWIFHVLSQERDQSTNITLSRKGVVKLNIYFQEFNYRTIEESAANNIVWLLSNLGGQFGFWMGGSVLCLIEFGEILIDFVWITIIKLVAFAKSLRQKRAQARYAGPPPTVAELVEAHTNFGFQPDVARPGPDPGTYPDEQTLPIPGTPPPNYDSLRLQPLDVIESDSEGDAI
Sequence (A0A8I3MKE6 1-646): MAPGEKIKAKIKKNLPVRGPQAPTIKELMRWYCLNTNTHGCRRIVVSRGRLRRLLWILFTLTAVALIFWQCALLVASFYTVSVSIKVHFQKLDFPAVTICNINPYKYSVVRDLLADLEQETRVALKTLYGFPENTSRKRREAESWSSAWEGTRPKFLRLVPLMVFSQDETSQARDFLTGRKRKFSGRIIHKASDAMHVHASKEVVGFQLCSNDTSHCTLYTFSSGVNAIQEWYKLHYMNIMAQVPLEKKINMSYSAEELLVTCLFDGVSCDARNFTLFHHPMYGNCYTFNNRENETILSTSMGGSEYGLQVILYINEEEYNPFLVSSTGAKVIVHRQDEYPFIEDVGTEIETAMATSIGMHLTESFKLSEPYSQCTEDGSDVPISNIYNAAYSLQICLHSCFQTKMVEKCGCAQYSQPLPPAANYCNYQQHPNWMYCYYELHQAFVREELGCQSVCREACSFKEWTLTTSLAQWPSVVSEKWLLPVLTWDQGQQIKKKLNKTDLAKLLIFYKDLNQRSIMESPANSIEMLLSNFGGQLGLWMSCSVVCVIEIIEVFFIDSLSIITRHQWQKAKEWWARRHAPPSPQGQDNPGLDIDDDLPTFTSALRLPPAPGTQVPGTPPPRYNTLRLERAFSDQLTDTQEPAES

[[record]]
compound = "N=C(NCCCCC1CCN(CC(O)CO)CC1)NC(=O)c1nc(Cl)c(N)nc1N (centres unmarked)"
measurement_kind = "Fold Amiloride** (PSA 4022 = 100)"
val = "6 ± 2 (n = 7)"

[[record]]
compound = "N=C(NCCCCC1CCN(CCCO)CC1)NC(=O)c1nc(Cl)c(N)nc1N"
measurement_kind = "Fold Amiloride** (PSA 4022 = 100)"
val = "5 ± 2 (n = 8)"

[[record]]
compound = "CC(C)(C)OC(=O)N=C(NCCCN1CCC(CCCCNC(=N)NC(=O)c2nc(Cl)c(N)nc2N)CC1)NC(=O)OC(C)(C)C"
measurement_kind = "Fold Amiloride** (PSA 4022 = 100)"
val = "41 ± 9 (n = 9)"

[[record]]
compound = "N=C(NCCCCC1CCN(CCCN)CC1)NC(=O)c1nc(Cl)c(N)nc1N"
measurement_kind = "Fold Amiloride** (PSA 4022 = 100)"
val = "3 ± 9 (n = 7)"

[[record]]
compound = "CC(C)(C)OC(=O)NCCCN1CCC(CCCCNC(=N)NC(=O)c2nc(Cl)c(N)nc2N)CC1"
measurement_kind = "Fold Amiloride** (PSA 4022 = 100)"
val = "8 ± 1 (n = 6)"

[[record]]
compound = "Cl.Cl.Cl.N=C(N)NCCCN1CCC(CCCCNC(=N)NC(=O)c2nc(Cl)c(N)nc2N)CC1"
measurement_kind = "Fold Amiloride** (PSA 4022 = 100)"
val = "18 ± 7 (n = 4)"


Data request, read-out Fold Amiloride** (PSA 4022 = 100), for N=C(NCCCCC1CCN(CCO)CC1)NC(=O)c1nc(Cl)c(N)nc1N
8 ± 3 (n = 6)

Data request, read-out Fold Amiloride** (PSA 4022 = 100), for N=C(NCCCCC1CCN(CCN)CC1)NC(=O)c1nc(Cl)c(N)nc1N
5 ± 1 (n = 7)

* * *

Where a name gives a salt, the structure may show the parent alone.
Entries and their melting point

Data request, read-out melting point, for N=C(N)NCCCN1CCC(CCCCNC(=N)NC(=O)c2nc(Cl)c(N)nc2N)CC1 (as salt: hydrochloride)
176 to 178 °C

Data request, read-out melting point, for N=C(NCCCCC1CCN(CCCN)CC1)NC(=O)c1nc(Cl)c(N)nc1N (as salt: hydrochloride)
105 to 108 °C

Data request, read-out melting point, for N=C(NCCCCC1CCN(CC(O)CO)CC1)NC(=O)c1nc(Cl)c(N)nc1N (centres unmarked)
188 to 191 °C

Data request, read-out melting point, for N=C(NCCCCC1CCN(CCCO)CC1)NC(=O)c1nc(Cl)c(N)nc1N (as salt: hydrochloride)
165 to 167 °C

Data request, read-out melting point, for N=C(NCCCCC1CCN(CCN)CC1)NC(=O)c1nc(Cl)c(N)nc1N (as salt: hydrochloride)
> 200 °C
